# SYSTEM_TESTED: PDZD9, Q8IXQ8
# Sequence (Q8IXQ8 23-120): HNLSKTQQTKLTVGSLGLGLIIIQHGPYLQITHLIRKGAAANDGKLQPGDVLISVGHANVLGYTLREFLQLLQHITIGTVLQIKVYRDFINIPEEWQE
# TEST_DETAILS: holdup assay
# Design: key: below the threshold = too weak to quantify, mostly under pKd 3.1 to 4
# TEST_PARAMETERS: plain residues with an end cap or a label only (N-terminal biotin on a linker: ttds)
RECORDED_METRIC: pKd

PKTPPTDTSV [KIR3DL3, Q8N743] ... below the threshold
STLTIFETAL [ABCC4, O15439] ... below the threshold
SVWLRKETRV [CYSLTR2, Q9NS75] ... below the threshold
